assayed target: Kelch-like ECH-associated protein 1 (Homo sapiens)
Sequence (Q14145 whole entry): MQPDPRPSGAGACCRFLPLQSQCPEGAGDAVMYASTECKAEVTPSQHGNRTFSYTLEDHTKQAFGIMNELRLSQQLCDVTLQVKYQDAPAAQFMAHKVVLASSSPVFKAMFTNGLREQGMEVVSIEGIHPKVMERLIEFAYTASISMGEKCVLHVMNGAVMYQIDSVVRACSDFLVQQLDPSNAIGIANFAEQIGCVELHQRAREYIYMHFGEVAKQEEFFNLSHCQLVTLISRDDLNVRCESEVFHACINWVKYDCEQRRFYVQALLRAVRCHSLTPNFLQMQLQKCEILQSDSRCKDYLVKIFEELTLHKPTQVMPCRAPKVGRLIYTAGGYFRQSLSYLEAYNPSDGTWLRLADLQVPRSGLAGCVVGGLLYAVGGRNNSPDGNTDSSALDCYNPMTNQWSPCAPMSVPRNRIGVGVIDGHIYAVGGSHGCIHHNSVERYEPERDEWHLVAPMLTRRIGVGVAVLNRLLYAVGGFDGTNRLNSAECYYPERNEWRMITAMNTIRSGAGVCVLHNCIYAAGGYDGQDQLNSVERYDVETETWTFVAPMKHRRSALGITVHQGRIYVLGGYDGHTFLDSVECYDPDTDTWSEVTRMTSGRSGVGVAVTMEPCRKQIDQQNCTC
pIC50: −log10 of the molar value.

| smi | pIC50 |
| --- | --- |
| COc1ccc(S(=O)(=O)N(CC(=O)O)c2ccc(N(CC(=O)O)S(=O)(=O)c3ccc(NC(=O)CCCC(=O)NCCN)cc3)c3ccccc23)cc1 | 7.51 |

###

assayed target: UniProt:Q14145
assay remarks: Binding affinity to human KEAP1 kelch domain (322 to 609 residues) expressed in Escherichia coli Arctic(DE3) cells at 0.05 mM by isothermal titration calorimetry

| smi | assayed target | Kd |
| --- | --- | --- |
| COc1ccc(S(=O)(=O)N(CC(=O)O)c2ccc(N(CC(=O)O)S(=O)(=O)c3ccc(NC(=O)CCCC(=O)NCCNC(=S)Nc4ccc5c(c4)C(=O)OC54c5ccc(O)cc5Oc5cc(O)ccc54)cc3)c3ccccc23)cc1 | UniProt:Q14145 | 29.1 nM |
